# measurementDescription: compound binding in COS7 lysate, probe aLAP1, primary screen, cell lysate, small-molecule microarray (AID 1124);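 also: lysate comes from COS7 cells expressing LAP1 and is applied at 0.3 µg/mL; score merges spot fluorescence near 667 nm with signal-to-noise over triplicate slides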
# conditionDetails: probe aLAP1, fluorescence, higher = more signal
Measured composite z-score, listed per entry for reference.

molecule | composite z-score
COc1ccc([Si](C)(C)[C@H]2[C@H](CCn3cc([C@H](O)c4ccccc4)nn3)O[C@@]3(C(=O)N(Cc4ccc(N5C(=O)c6cccc7cccc5c67)cc4)c4ccccc43)[C@@H]2C)cc1 | 0.838
Cc1cc(C)c(C(O)C2C=CC3C(=O)N(c4ccccc4)C(=O)C3N2Nc2ccc(C(C)C)cc2)c(C)c1 (centres undefined) | 0.8
CC(C)OC(=O)C=C1C[C@@H](c2ccc(C(F)(F)F)cc2)O[C@@H](c2ccc(C(F)(F)F)cc2)O1 | 0.35
O=C1C[C@@](C(=O)NCCN2CCOCC2)(c2ccc([N+](=O)[O-])cc2)[C@@H](c2ccc(CO)cc2I)N1C1CCCCC1 | 1.07
